In this section, each of the variants is paired with its reported abundance fitness.
B1: Far upstream element-binding protein 3, residues 75 to 150; numbered along this chain, Q96I24 (parent)
chain: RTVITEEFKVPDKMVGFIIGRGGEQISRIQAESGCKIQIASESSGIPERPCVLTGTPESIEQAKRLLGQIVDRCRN

# Variants of: B1
# MEASUREMENT DESCRIPTION: abundance fitness (aPCA) (normalised: wild type 0, dead -1); higher = more abundant; growth selection in yeast, the domain comes from the species named
# RUN CONDITIONS: Homo sapiens

| VARIANT DESIGNATION | abundance fitness |
| --- | --- |
| E6M | -0.103 |
| V71F | -0.099 |
| P57F | -0.103 |
